# Tested on: HCT-116
# EXPERIMENT_DESCRIPTION: Cytotoxicity against colon HCT116 human cancer cell line.
# Assay type: functional
READOUT: GI50 (µM)
Give your result in µM as a bare value.

Sample `C=CCn1c2c(c3cc(OC)c(OC)cc3c1=O)C(=O)c1cc3c(cc1-2)OCO3` ; GI50 observed: 2.3

Sample `COc1cc2c3c(n(C)c(=O)c2cc1OC)-c1cc(OCc2ccccc2)c(OCc2ccccc2)cc1C3=O` ; GI50 observed: 80

* * *

Assign GI50 to each entry below.
# System: UACC-62
# EXPERIMENT_DESCRIPTION: In vitro cytotoxicity against UACC-62 (Human melanoma) cell line.
# Type: functional

Lab entry: UACC-62 assay, compound `O=C1c2ccccc2-c2oc(=O)c3ccccc3c21` , GI50 = > 100 µM

Lab entry: UACC-62 assay, compound `COc1ccc(-n2c3c(c4cc(OC)c(OC)cc4c2=O)C(=O)c2cc4c(cc2-3)OCO4)cc1` , GI50 = > 100 µM

Lab entry: UACC-62 assay, compound `COC(=O)Cn1c2c(c3ccccc3c1=O)C(=O)c1ccccc1-2` , GI50 = > 100 µM

Reference source: ChEMBL document CHEMBL1132570
